Molecular target: Motilin receptor (Homo sapiens); also: assay procedure not described here
Sequence (O43193 whole entry): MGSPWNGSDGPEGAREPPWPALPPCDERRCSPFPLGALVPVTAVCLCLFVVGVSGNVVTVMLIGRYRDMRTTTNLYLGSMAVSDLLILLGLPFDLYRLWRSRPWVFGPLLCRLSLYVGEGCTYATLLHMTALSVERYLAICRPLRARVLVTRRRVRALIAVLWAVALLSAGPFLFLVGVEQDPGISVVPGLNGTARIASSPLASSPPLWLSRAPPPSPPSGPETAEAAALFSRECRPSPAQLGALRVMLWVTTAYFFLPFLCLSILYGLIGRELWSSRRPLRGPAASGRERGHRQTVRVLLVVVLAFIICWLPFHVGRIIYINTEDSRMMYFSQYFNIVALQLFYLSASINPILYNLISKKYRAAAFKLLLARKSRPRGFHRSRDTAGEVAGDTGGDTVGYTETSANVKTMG
Overview of reported AC50 across a group of molecules:

Solved entries:
1) O=C(O)/C=C/c1ccc(Cn2ccnc2)cc1 :: > 30 µM
2) CNC(C)CCC=C(C)C (stereo not given) :: > 30 µM
3) CCOc1ccc(Cc2cc([C@@H]3O[C@H](CO)[C@@H](O)[C@H](O)[C@H]3O)ccc2Cl)cc1 :: > 10 µM
4) C[C@@H](O)[C@H]1C(=O)N2C(C(=O)O)=C(S[C@@H]3CN[C@H](C(=O)N(C)C)C3)[C@H](C)[C@H]12 :: > 300 µM

Switching to the query record.
Give the reported AC50 for CCCC(=O)O[C@]1(C(=O)CO)CC[C@H]2[C@@H]3CCC4=CC(=O)CC[C@]4(C)[C@H]3[C@@H](O)C[C@@]21C [HYDROCORTISONE BUTYRATE] (system: Motilin receptor (Homo sapiens)). > 10 µM

src = ChEMBL document CHEMBL5291721
